System: HeLa Kyoto
ASSAY: thermal stability score vs G1/S (z-score of summed log2 fold changes over temperatures); higher = more thermally stable than in G1/S
EXPERIMENTAL CONDITIONS: cell cycle stage: mitosis
TEST READOUT: thermal stability score
Give the value as a plain number.

MAFLRSMWGVLSALGRSGAELCTGCGSRLRSPFSFVYLPRWFSSVLASCPKKPVSSYLRFSKEQLPIFKAQNPDAKTTELIRRIAQRWRELPDSKKKIYQDAYRAEWQVYKEEISRFKEQLTPSQIMSLEKEIMDKHLKRKAMTKKKELTLLGKPKRPRSAYNVYVAERFQEAKGDSPQEKLKTVKENWKNLSDSEKELYIQHAKEDETRYHNEMKSWEEQMIEVGRKDLLRRTIKKQRKYGAEEC [TFAM] :: -1.16

Shifting focus to the sequence that follows.
(Q) For MAKISSPTETERCIESLIAVFQKYAGKDGYNYTLSKTEFLSFMNTELAAFTKNQKDPGVLDRMMKKLDTNSDGQLDFSEFLNLIGGLAMACHDSFLKAVPSQKRT [S100A11] , what is its reported thermal stability score?
(A) -4.13

----------
System: HeLa Kyoto
ASSAY: solubility change mitosis vs G1/S (difference of NP-40 vs SDS log2 ratios) (log2 ratio difference); higher = more soluble in mitosis
TEST READOUT: solubility change mitosis (log2)
Keep the answer to the number alone.

(Q) Please look up its solubility change mitosis (log2): MALPHDSNETSYLLPPNNEDWGRQTIPDFVYGQKDLMAEGIQWPRNAPGIPDALPQSPFDAALCSAWKQRVELGLFRYRLRELQTQILPGAVGFVAQLNVERGVQRRPPQTIKSVRQAFDPVQFNFNKIRPGEVLFRLHREPDLPGTLLQEDILVVINVSPLEWGHVLLVPEPARQLPQRLLPGALRAGIEAVLLSLHPGFRVGFNSLGGLASVNHLHLHGYYLAHRLPVEQAPSEPLDPGGHLHLLQDLPAPGFLFYTRGPGPDLESLISRVCRATDYLTDHEIAHNLFVTRGAPPGKTSPSSALTGVRVILWARKSSFGIKDGEAFNVALCELAGHLPVKTSQDFSSLTEAAAVALIQDCRLPPSQAEDVQAALVALMSQEEQ [GDPGP1]
(A) -0.107

----------
System: HeLa Kyoto
ASSAY: solubility change mitosis vs G1/S (difference of NP-40 vs SDS log2 ratios) (log2 ratio difference); higher = more soluble in mitosis
TEST READOUT: solubility change mitosis (log2)

MPKRKVTFQGVGDEEDEDEIIVPKKKLVDPVAGSGGPGSRFKGKHSLDSDEEEDDDDGGSSKYDILASEDVEGQEAATLPSEGGVRITPFNLQEEMEEGHFDADGNYFLNRDAQIRDSWLDNIDWVKIRERPPGQRQASDSEEEDSLGQTSMSAQALLEGLLELLLPRETVAGALRRLGARGGGKGRKGPGQPSSPQRLDRLSGLADQMVARGNLGVYQETRERLAMRLKGLGCQTLGPHNPTPPPSLDMFAEELAEEELETPTPTQRGEAESRGDGLVDVMWEYKWENTGDAELYGPFTSAQMQTWVSEGYFPDGVYCRKLDPPGGQFYNSKRIDFDLYT [CD2BP2] :: 0.301
MAIKSIASRLRGSRRFLSGFVAGAVVGAAGAGLAALQFFRSQGAEGALTGKQPDGSAEKAVLEQFGFPLTGTEARCYTNHALSYDQAKRVPRWVLEHISKSKIMGDADRKHCKFKPDPNIPPTFSAFNEDYVGSGWSRGHMAPAGNNKFSSKAMAETFYLSNIVPQDFDNNSGYWNRIEMYCRELTERFEDVWVVSGPLTLPQTRGDGKKIVSYQVIGEDNVAVPSHLYKVILARRSSVSTEPLALGAFVVPNEAIGFQPQLTEFQVSLQDLEKLSGLVFFPHLDRTSDIRNICSVDTCKLLDFQEFTLYLSTRKIEGARSVLRLEKIMENLKNAEIEPDDYFMSRYEKKLEELKAKEQSGTQIRKPS [EXOG] :: -0.0598

(Q) So what's the measured solubility change mitosis (log2) for this one? MPEINTNHLDKQQVQLLAEMCILIDENDNKIGAETKKNCHLNENIEKGLLHRAFSVFLFNTENKLLLQQRSDAKITFPGCFTNTCCSHPLSNPAELEESDALGVRRAAQRRLKAELGIPLEEVPPEEINYLTRIHYKAQSDGIWGEHEIDYILLVRKNVTLNPDPNEIKSYCYVSKEELKELLKKAASGEIKITPWFKIIAATFLFKWWDNLNHLNQFVDHEKIYRM [IDI1]
(A) 0.0595

----------
Test system: HeLa Kyoto
ASSAY: solubility change mitosis vs G1/S (difference of NP-40 vs SDS log2 ratios) (log2 ratio difference); higher = more soluble in mitosis
Some sequences, each annotated with its measured solubility change mitosis (log2).
I'd appreciate a reply containing only the number, no unit.

MKLPARVFFTLGSRLPCGLAPRRFFSYGTKILYQNTEALQSKFFSPLQKAMLPPNSFQGKVAFITGGGTGLGKGMTTLLSSLGAQCVIASRKMDVLKATAEQISSQTGNKVHAIQCDVRDPDMVQNTVSELIKVAGHPNIVINNAAGNFISPTERLSPNAWKTITDIVLNGTAFVTLEIGKQLIKAQKGAAFLSITTIYAETGSGFVVPSASAKAGVEAMSKSLAAEWGKYGMRFNVIQPGPIKTKGAFSRLDPTGTFEKEMIGRIPCGRLGTVEELANLAAFLCSDYASWINGAVIKFDGGEEVLISGEFNDLRKVTKEQWDTIEELIRKTKGS [DECR1] :: 0.263

(Q) Kindly state the measured solubility change mitosis (log2) obtained for MSLQWTAVATFLYAEVFVVLLLCIPFISPKRWQKIFKSRLVELLVSYGNTFFVVLIVILVLLVIDAVREIRKYDDVTEKVNLQNNPGAMEHFHMKLFRAQRNLYIAGFSLLLSFLLRRLVTLISQQATLLASNEAFKKQAESASEAAKKYMEENDQLKKGAAVDGGKLDVGNAEVKLEEENRSLKADLQKLKDELASTKQKLEKAENQVLAMRKQSEGLTKEYDRLLEEHAKLQAAVDGPMDKKEE [BCAP31] with HeLa Kyoto.
(A) -0.101

----------
System: HeLa Kyoto
ASSAY: solubility in G1/S (NP-40 vs SDS abundance) (log2 ratio); higher = more soluble
EXPERIMENTAL CONDITIONS: cell cycle stage: G1/S
Entry flag: class 1 if solubility in G1/S (log2) reaches 0.05; class 0 if it does not.

Example results:
MGLLRIMMPPKLQLLAVVAFAVAMLFLENQIQKLEESRSKLERAIARHEVREIEQRHTMDGPRQDATLDEEEDMVIIYNRVPKTASTSFTNIAYDLCAKNKYHVLHINTTKNNPVMSLQDQVRFVKNITSWKEMKPGFYHGHVSYLDFAKFGVKKKPIYINVIRDPIERLVSYYYFLRFGDDYRPGLRRRKQGDKKTFDECVAEGGSDCAPEKLWLQIPFFCGHSSECWNVGSRWAMDQAKYNLINEYFLVGVTEELEDFIMLLEAALPRFFRGATELYRTGKKSHLRKTTEKKLPTKQTIAKLQQSDIWKMENEFYEFALEQFQFIRAHAVREKDGDLYILAQNFFYEKIYPKSN [HS2ST1] :: class 0
MAGGGAGDPGLGAAAAPAPETREHLFKVLVIGELGVGKTSIIKRYVHQLFSQHYRATIGVDFALKVLNWDSRTLVRLQLWDIAGQERFGNMTRVYYKEAVGAFVVFDISRSSTFEAVLKWKSDLDSKVHLPNGSPIPAVLLANKCDQNKDSSQSPSQVDQFCKEHGFAGWFETSAKDNINIEEAARFLVEKILVNHQSFPNEENDVDKIKLDQETLRAENKSQCC [RAB32] :: class 0
MVKLFIGNLPREATEQEIRSLFEQYGKVLECDIIKNYGFVHIEDKTAAEDAIRNLHHYKLHGVNINVEASKNKSKTSTKLHVGNISPTCTNKELRAKFEEYGPVIECDIVKDYAFVHMERAEDAVEAIRGLDNTEFQGKRMHVQLSTSRLRTAPGMGDQSGCYRCGKEGHWSKECPIDRSGRVADLTEQYNEQYGAVRTPYTMSYGDSLYYNNAYGALDAYYKRCRAARSYEAVAAAAASVYNYAEQTLSQLPQVQNTAMASHLTSTSLDPYDRHLLPTSGAAATAAAAAAAAAAVTAASTSYYGRDRSPLRRATAPVPTVGEGYGYGHESELSQASAAARNSLYDMARYEREQYADRARYSAF [RBM4] :: class 1
MAAAAARWNHVWVGTETGILKGVNLQRKQAANFTAGGQPRREEAVSALCWGTGGETQMLVGCADRTVKHFSTEDGIFQGQRHCPGGEGMFRGLAQADGTLITCVDSGILRVWHDKDKDTSSDPLLELRVGPGVCRMRQDPAHPHVVATGGKENALKIWDLQGSEEPVFRAKNVRNDWLDLRVPIWDQDIQFLPGSQKLVTCTGYHQVRVYDPASPQRRPVLETTYGEYPLTAMTLTPGGNSVIVGNTHGQLAEIDLRQGRLLGCLKGLAGSVRGLQCHPSKPLLASCGLDRVLRIHRIQNPRGLEHKVYLKSQLNCLLLSGRDNWEDEPQEPQEPNKVPLEDTETDELWASLEAAAKRKLSGLEQPQGALQTRRRKKKRPGSTSP [WDR74] :: class 0
MAMVSEFLKQAWFIENEEQEYVQTVKSSKGGPGSAVSPYPTFNPSSDVAALHKAIMVKGVDEATIIDILTKRNNAQRQQIKAAYLQETGKPLDETLKKALTGHLEEVVLALLKTPAQFDADELRAAMKGLGTDEDTLIEILASRTNKEIRDINRVYREELKRDLAKDITSDTSGDFRNALLSLAKGDRSEDFGVNEDLADSDARALYEAGERRKGTDVNVFNTILTTRSYPQLRRVFQKYTKYSKHDMNKVLDLELKGDIEKCLTAIVKCATSKPAFFAEKLHQAMKGVGTRHKALIRIMVSRSEIDMNDIKAFYQKMYGISLCQAILDETKGDYEKILVALCGGN [ANXA1] :: class 1
MAARGRRAEPQGREAPGPAGGGGGGSRWAESGSGTSPESGDEEVSGAGSSPVSGGVNLFANDGSFLELFKRKMEEEQRQRQEEPPPGPQRPDQSAAAAGPGDPKRKGGPGSTLSFVGKRRGGNKLALKTGIVAKKQKTEDEVLTSKGDAWAKYMAEVKKYKAHQCGDDDKTRPLVK [C19ORF43] :: class 0
MATQAHSLSYAGCNFLRQRLVLSTLSGRPVKIRKIRARDDNPGLRDFEASFIRLLDKITNGSRIEINQTGTTLYYQPGLLYGGSVEHDCSVLRGIGYYLESLLCLAPFMKHPLKIVLRGVTNDQVDPSVDVLKATALPLLKQFGIDGESFELKIVRRGMPPGGGGEVVFSCPVRKVLKPIQLTDPGKIKRIRGMAYSVRVSPQMANRIVDSARSILNKFIPDIYIYTDHMKGVNSGKSPGFGLSLVAETTSGTFLSAELASNPQGQGAAVLPEDLGRNCARLLLEEIYRGGCVDSTNQSLALLLMTLGQQDVSKVLLGPLSPYTIEFLRHLKSFFQIMFKIETKPCGEELKGGDKVLMTCVGIGFSNLSKTLK [RCL1] :: class 0
MSDSGEQNYGERESRSASRSGSAHGSGKSARHTPARSRSKEDSRRSRSKSRSRSESRSRSRRSSRRHYTRSRSRSRSHRRSRSRSYSRDYRRRHSHSHSPMSTRRRHVGNRANPDPNCCLGVFGLSLYTTERDLREVFSKYGPIADVSIVYDQQSRRSRGFAFVYFENVDDAKEAKERANGMELDGRRIRVDFSITKRPHTPTPGIYMGRPTYGSSRRRDYYDRGYDRGYDDRDYYSRSYRGGGGGGGGWRAAQDRDQIYRRRSPSPYYSRGGYRSRSRSRSYSPRRY [TRA2B] :: class 0

(Q) I'd appreciate it if you could say whether MLEEDMEVAIKMVVVGNGAVGKSSMIQRYCKGIFTKDYKKTIGVDFLERQIQVNDEDVRLMLWDTAGQEEFDAITKAYYRGAQACVLVFSTTDRESFEAVSSWREKVVAEVGDIPTVLVQNKIDLLDDSCIKNEEAEALAKRLKLRFYRTSVKEDLNVNEVFKYLAEKYLQKLKQQIAEDPELTHSSSNKIGVFNTSGGSHSGQNSGTLNGGDVINLRPNKQRTKKNRNPFSSCSIP [RAB23] has solubility in G1/S (log2) at least equal to 0.05.
(A) class 0

(Q) API: above_or_equal(metric=solubility in G1/S (log2), cutoff=0.05) for item MLPLSLLKTAQNHPMLVELKNGETYNGHLVSCDNWMNINLREVICTSRDGDKFWRMPECYIRGSTIKYLRIPDEIIDMVKEEVVAKGRGRGGLQQQKQQKGRGMGGAGRGVFGGRGRGGIPGTGRGQPEKKPGRQAGKQ [LSM4]
(A) class 1
